tgt: F88A hP2X7 (Homo sapiens, UniProt Q99572, F88A)
Sequence (Q99572 1-595 F88A): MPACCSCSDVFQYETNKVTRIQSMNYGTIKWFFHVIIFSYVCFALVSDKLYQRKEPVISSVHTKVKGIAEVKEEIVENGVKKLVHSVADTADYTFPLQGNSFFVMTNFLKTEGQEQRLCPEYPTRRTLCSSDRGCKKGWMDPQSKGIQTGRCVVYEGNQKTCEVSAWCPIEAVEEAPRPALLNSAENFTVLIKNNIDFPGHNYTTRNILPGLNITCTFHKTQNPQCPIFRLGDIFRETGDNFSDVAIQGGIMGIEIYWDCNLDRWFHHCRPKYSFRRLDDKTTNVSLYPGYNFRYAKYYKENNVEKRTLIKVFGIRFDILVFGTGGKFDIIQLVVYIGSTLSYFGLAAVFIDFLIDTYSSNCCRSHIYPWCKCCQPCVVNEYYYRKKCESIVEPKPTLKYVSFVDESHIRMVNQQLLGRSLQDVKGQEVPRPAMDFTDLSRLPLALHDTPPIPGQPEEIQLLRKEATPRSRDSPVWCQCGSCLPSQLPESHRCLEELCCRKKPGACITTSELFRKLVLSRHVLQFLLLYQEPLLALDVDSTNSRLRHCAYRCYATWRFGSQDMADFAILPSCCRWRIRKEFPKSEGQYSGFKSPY
method: fura-2 intracellular calcium assay on HEK-293 stable cell line expressing NAM-site mutant F88A hP2X7
Assay type: cell-based
measurementParameters: F88A hP2X7, agonist ATP; mean in brackets, n = 3; read-out: mean IC50
measurementLabel: IC50 (nM)
Respond with the bare value in nM.

Fill in IC50 for record "O=C(NCC1(N2CCN(c3ccccc3)CC2)CCOCC1)c1cccnc1Sc1ccccc1"
125

====

tgt: M105A hP2X7 (Homo sapiens, UniProt Q99572, M105A)
method: fura-2 intracellular calcium assay on HEK-293 stable cell line expressing NAM-site mutant M105A hP2X7
Assay type: cell-based
measurementParameters: M105A hP2X7, agonist ATP; mean in brackets, n = 3; read-out: mean IC50
measurementLabel: IC50 (nM)
Respond with the bare value in nM.

Fill in IC50 for record "O=C(NCC1(N2CCN(c3ccccc3)CC2)CCOCC1)c1cccnc1Sc1ccccc1"
45

====

tgt: M105A hP2X7 (Homo sapiens, UniProt Q99572, M105A)
Sequence (Q99572 1-595 M105A): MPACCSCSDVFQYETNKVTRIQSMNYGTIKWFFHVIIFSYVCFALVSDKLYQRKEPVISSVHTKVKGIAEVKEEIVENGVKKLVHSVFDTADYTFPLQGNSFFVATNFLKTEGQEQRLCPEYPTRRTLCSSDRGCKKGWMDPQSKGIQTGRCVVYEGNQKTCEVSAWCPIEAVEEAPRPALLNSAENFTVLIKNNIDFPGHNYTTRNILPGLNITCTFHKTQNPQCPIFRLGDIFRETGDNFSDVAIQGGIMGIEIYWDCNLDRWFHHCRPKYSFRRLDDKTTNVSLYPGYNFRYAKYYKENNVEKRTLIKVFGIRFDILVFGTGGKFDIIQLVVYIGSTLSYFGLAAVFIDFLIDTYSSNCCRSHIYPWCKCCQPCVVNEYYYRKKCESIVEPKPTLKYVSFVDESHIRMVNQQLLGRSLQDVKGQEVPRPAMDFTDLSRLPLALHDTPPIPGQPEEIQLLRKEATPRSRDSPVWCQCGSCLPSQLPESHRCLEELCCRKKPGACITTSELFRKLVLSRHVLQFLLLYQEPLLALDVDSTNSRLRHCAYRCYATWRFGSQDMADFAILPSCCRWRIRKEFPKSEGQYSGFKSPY
method: fura-2 intracellular calcium assay on HEK-293 stable cell line expressing NAM-site mutant M105A hP2X7
Format: cell-based
measurementParameters: M105A hP2X7, agonist BzATP; mean in brackets, n = 3; read-out: mean IC50
measurementLabel: pIC50
Schema: pIC50 number; meaning minus log10 of the concentration expressed in molar units.

Report pIC50 on M105A hP2X7 (Homo sapiens, UniProt Q99572, M105A) for this entry: O=C(NCC1(N2CCN(c3ccccc3)CC2)CCOCC1)c1cccnc1Sc1ccccc1 [JNJ-47965567]
7.54
